Listed here: items and their measured pKd.
biological target: T1, IFN-α4a (human, UniProt P05014 24-189); assay: ProteOn, one antigen concentration
T1 construct: also called IFN-αM1
pKd: −log10 of the molar value.

| BINDER | pKd |
| --- | --- |
| IFWM3357 (antibody, V domains shown, VH IFWH624, VL IFWL1038; converted mAb; also called IFWB3092) VH: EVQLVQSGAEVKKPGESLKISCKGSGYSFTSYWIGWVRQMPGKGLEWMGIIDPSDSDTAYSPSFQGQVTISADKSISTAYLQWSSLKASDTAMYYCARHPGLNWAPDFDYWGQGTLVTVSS VL: DIQMTQSPSSLSASVGDRVTITCRASQSISEYLNWYQQKPGKAPKLLIYFASSLQSGVPSRFSGSGSGTDFTLTISSLQPEDFATYYCQQSHSLPITFGQGTKVEIK | 9.77 |
| IFWM3336 (antibody, V domains shown, VH IFWH591, VL IFWL1085; converted mAb; also called IFWB3071) VH: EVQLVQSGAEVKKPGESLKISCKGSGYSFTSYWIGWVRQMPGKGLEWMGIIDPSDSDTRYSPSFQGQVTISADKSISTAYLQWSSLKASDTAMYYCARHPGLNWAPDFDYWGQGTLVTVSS VL: DIQMTQSPSSLSASVGDRVTITCRASQSIRNNYLNWYQQKPGKAPKLLIYAASSLQSGVPSRFSGSGSGTDFTLTISSLQPEDFATYYCQQGYDTPLTFGQGTKVEIK | 9.63 |
| IFWM3301 (antibody, V domains shown, VH IFWH591, VL IFWL983; converted mAb; also called IFWB3036) VH: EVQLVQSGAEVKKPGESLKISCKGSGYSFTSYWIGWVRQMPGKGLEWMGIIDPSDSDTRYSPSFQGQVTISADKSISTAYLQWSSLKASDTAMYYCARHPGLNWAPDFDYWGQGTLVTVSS VL: DIQMTQSPSSLSASVGDRVTITCRASQSIDGSLNWYQQKPGKAPKLLIYFASSLQSGVPSRFSGSGSGTDFTLTISSLQPEDFATYYCQQSYDFPLTFGQGTKVEIK | 9.84 |
| IFWM3308 (antibody, V domains shown, VH IFWH591, VL IFWL1004; converted mAb; also called IFWB3043) VH: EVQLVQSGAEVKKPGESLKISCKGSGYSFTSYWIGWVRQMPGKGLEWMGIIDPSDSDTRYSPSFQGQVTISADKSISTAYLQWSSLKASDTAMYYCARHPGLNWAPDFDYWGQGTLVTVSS VL: DIQMTQSPSSLSASVGDRVTITCRASQSIAEFLNWYQQKPGKAPKLLIYFASSLQSGVPSRFSGSGSGTDFTLTISSLQPEDFATYYCQQSIDFPLTFGQGTKVEIK | 9.61 |
| IFWM3305 (antibody, V domains shown, VH IFWH591, VL IFWL998; converted mAb; also called IFWB3040) VH: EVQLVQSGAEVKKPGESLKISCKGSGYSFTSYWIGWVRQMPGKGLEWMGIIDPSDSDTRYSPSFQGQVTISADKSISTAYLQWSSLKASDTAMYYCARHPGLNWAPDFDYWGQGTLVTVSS VL: DIQMTQSPSSLSASVGDRVTITCRASQSISKFLNWYQQKPGKAPKLLIYFASSLQSGVPSRFSGSGSGTDFTLTISSLQPEDFATYYCQQSNTLPFTFGQGTKVEIK | 9.65 |
